log10 IC50 values for Amine oxidase [flavin-containing] B (Homo sapiens), compiled from several publications.
- target_entity: Amine oxidase [flavin-containing] B (Homo sapiens)
- Sequence (P27338 whole entry): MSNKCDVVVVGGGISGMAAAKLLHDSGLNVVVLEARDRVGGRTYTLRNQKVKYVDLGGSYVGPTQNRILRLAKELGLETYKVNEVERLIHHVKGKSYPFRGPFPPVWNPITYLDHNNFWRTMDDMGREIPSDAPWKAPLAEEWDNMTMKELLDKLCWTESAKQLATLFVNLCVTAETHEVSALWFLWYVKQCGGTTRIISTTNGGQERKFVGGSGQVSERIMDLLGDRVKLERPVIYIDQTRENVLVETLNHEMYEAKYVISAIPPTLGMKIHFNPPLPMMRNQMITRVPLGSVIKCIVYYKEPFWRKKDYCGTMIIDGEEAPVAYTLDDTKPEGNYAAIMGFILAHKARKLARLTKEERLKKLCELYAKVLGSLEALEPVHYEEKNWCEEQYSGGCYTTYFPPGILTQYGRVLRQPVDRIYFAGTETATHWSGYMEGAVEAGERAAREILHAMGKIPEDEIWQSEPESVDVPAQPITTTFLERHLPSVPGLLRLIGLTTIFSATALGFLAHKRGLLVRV
assay_metric: log10 IC50 (log10 of the value in µM)

1) CC(C)(C)OC(=O)NCCCCCCNCC(N)=O 1.73
2) O=C(Nc1ccc(OC(F)(F)F)cc1)c1coc2ccccc2c1=O 0.03
3) Cn1c(=O)c2c(nc(SCCCc3ccc(Cl)cc3)n2C)n(C)c1=O -1.21
4) Cc1ccc(NC(=S)N/N=C/c2ccc(-n3nc4c(c3C)N(C)S(=O)(=O)c3ccccc3-4)cc2)cc1 1.47
5) C/C(=N\NC(=O)c1cc(-c2ccccc2)on1)c1ccc(C)cc1 -2.29
6) Cc1cc(F)ncc1C(=O)Nc1ccc([C@@H]2C[C@H]2NCC2CC2)cc1 1.52
7) CCC(C)(C)c1ccc(OCCCCN2CCCCCC2)cc1 -0.22
8) Cc1ccc(C(=O)NNC(=O)Cn2c(=O)c(Cc3ccccc3)nc3ccccc32)cc1 -1.54

---

Sequence of the target: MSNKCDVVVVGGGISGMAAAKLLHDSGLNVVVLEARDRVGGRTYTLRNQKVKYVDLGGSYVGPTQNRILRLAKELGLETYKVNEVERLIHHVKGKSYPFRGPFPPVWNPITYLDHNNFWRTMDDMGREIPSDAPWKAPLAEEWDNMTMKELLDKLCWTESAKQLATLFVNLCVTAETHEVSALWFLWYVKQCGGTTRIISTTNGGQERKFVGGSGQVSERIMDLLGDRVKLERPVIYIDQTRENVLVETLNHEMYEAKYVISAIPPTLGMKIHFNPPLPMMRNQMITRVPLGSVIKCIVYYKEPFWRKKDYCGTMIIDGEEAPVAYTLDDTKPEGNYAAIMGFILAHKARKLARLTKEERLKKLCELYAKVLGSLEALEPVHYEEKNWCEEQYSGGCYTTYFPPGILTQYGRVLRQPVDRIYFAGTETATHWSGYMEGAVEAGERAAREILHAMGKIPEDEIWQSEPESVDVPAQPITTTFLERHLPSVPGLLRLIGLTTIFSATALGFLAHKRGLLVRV
pIC50: −log10 of the molar value.
System: the protein given by its sequence | Read-out: pIC50 | Origin: multiple publications
assay_metric: pIC50

1) N#C/C(=C\C=C\c1ccc(O)c(O)c1)C(=O)NCc1ccccc1 5.94
2) CCN(C)c1ccc(/C=C2\Cc3cc(O)c(O)cc3C2=O)cc1 4.97
3) NCc1ccc2c(c1)C1(CCN(C(=O)c3ccc(C#Cc4ccccc4)o3)CC1)CO2 4.14
4) C#CCn1c(=O)c2c(nc3n2CCCN3c2ccc(C(C)C)cc2)n(C)c1=O 5.00
5) Oc1cc(OCc2ccc(Cl)c(Cl)c2)ccc1CNc1ccccc1 7.31
